- System: NCI/ADR-RES
- protocol.text: NCI tumour cell line growth inhibition, 48 h
Calls of active or inactive are those of the source. Cut-off read from the data, not from the text of the source: active = GI50 up to about 1.1 µM and inactive = higher.

smi | GI50
CC(=O)Oc1c2c(c3n(c1=O)CCCC3)C(=O)N(c1ccccc1)C2=O | 65.3 µM (inactive)
Cc1ccc(C2=C(Cl)C(=O)C(c3ccc(C)cc3)=C(Cl)C2=O)cc1 | > 100 µM (inactive)
Cn1nnnc1SC(F)(F)c1nc2ccccc2o1 | > 100 µM (inactive)
CC1CCOc2ccc(cc2)/C=N\c2ccc(cc2)-c2ccc(cc2)/N=C\c2ccc(cc2)OCC1 | > 100 µM (inactive)
COc1cccc(Nc2nc(C)c([N+](=O)[O-])c(Nc3cccc(OC)c3)n2)c1 | 2.92 µM (inactive)
